TEST_DESCRIPTION: NCI Yeast Anticancer Drug Screen. Data for the mec2-1 strain (AID 157)
CONDITION_SET: S. cerevisiae mec2-1 strain, at 50.0 µM (retest, dose inferred, filed as 5.0)
This is part of a sample that, as a whole, favours compounds with a hit. Of some 79,000 tested, about 15% had one in any assay. The source made the active and inactive calls. Rule as the data show it: active = growth inhibition above about 70%; inactive = the rest.
Select the correct class. Options are active, inactive and nothing else.

Check out these entries, answers already filled in.
COMPOUND: Clc1ccccc1/C=C/c1nccc2ccccc12
CLASS_LABEL: active
//
COMPOUND: COC(=O)N1C2C=CC(=O)C(C=C2)N1C(=O)OC (configuration not stated)
CLASS_LABEL: inactive
//
COMPOUND: O=[N+]([O-])c1cc(I)cc(/C=N/NS(=O)(=O)c2ccc(F)cc2)c1O
CLASS_LABEL: inactive

Identify the outcome logged in this assay for the compound shown: `COc1ccc(CC2=CC(=O)C(=O)C=C2C)cc1`
inactive

Identify the outcome logged in this assay for the compound shown: O=[N+]([O-])CC(O)c1ccccc1Cl (configuration not stated)
active

Identify the outcome logged in this assay for the compound shown: `Nc1nc(=O)[nH]c([O-])c1N=O.Nc1nc(=O)[nH]c([O-])c1N=O.[Ag+].[Ag+]`
inactive

Identify the outcome logged in this assay for the compound shown: `O=C(NC1CCN(Cc2ccccc2)CC1)c1cccc(I)c1`
inactive

Identify the outcome logged in this assay for the compound shown: `COC(OC)(c1ccccc1)C(Br)Br`
active
